Below, each of the compounds is paired with its reported pIC50 value.
Molecular target: human TLR7 (Homo sapiens)
Sequence (Q9NYK1 27-1049): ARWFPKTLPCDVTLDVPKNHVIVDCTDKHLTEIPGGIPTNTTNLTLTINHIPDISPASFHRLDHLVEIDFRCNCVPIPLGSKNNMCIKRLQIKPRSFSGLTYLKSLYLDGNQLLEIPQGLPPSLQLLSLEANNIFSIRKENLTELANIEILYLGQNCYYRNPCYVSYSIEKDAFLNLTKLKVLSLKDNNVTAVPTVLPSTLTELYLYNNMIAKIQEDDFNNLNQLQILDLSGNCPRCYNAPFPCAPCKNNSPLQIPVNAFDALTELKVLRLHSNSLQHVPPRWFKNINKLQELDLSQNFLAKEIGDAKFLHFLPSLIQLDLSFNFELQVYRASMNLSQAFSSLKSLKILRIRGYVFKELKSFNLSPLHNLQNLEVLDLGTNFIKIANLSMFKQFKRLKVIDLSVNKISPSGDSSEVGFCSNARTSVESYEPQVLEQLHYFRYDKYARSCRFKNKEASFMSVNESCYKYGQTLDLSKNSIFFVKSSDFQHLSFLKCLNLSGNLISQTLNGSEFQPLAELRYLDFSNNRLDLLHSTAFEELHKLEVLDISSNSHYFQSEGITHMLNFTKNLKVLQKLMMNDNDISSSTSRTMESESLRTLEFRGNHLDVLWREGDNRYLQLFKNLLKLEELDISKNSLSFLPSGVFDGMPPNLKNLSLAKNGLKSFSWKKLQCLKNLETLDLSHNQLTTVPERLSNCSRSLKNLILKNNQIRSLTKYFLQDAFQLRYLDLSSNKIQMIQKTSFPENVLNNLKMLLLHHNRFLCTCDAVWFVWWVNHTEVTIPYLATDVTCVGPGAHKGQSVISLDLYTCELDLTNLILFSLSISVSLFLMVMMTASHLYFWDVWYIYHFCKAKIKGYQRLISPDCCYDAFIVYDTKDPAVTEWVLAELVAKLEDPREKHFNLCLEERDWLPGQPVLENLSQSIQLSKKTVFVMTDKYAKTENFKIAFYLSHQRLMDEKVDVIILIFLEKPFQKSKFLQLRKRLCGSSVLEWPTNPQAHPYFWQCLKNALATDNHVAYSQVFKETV
Test: TLR7 inhibition reporter assay (HEK-Blue cells, secreted embryonic alkaline phosphatase reporter)
Details: HEK-Blue cells overexpressing human TLR7, stimulated with gardiquimod 7.5 μM; read-out: TLR 7 IC50
pIC50: −log10 of the molar value.

compound	qualifying sign	pIC50
CC(C)CN1C2CCC1CC(N1CCC(c3cc(F)c4c(c3)nc(-c3ccc(S(C)(=O)=O)cc3)n4C)CC1)C2 (stereo not shown) [Example 210]	<	4.30
COc1ccc(-c2nc3c(C)cc(C4CCN(C5CC6(C5)CN(C(C)C)C6)CC4)cc3[nH]2)cc1OC	=	4.66
COc1ccc(-c2nc3c(C)cc(C4CCN(C5CCNCC5)CC4)cc3[nH]2)cc1OC [Example 13, tris(2,2,2-trifluoroacetate)]	<	4.30
Cn1c(-c2ccc(S(C)(=O)=O)cc2)nc2cc(C3CCN(C4CCN(C5COC5)CC4)CC3)c(F)cc21	<	4.30
COc1ccc(-c2nc3cc(C4CCN(C5CCN(CC(C)C)CC5)CC4)ccc3n2C(C)C)cc1OC	=	5.18
Cc1cc(C2CCN(C3CCN(C4CCC4)CC3)CC2)cc2c1nc(-c1ccc(S(C)(=O)=O)c(F)c1)n2C	=	5.92
Cc1cc(-c2ccc(CN3C[C@H]4CN(C)C[C@H]4C3)cc2)cc2c1nc(-c1ccc(S(C)(=O)=O)cc1)n2C	=	5.77

---

Below, each of the compounds is paired with its reported IC50 value.
Target: human TLR9 (Homo sapiens, UniProt Q9NR96)
Construct: host or cells: HEK-Blue cells (HEK293-derived reporter line)
Sequence (Q9NR96 26-1032): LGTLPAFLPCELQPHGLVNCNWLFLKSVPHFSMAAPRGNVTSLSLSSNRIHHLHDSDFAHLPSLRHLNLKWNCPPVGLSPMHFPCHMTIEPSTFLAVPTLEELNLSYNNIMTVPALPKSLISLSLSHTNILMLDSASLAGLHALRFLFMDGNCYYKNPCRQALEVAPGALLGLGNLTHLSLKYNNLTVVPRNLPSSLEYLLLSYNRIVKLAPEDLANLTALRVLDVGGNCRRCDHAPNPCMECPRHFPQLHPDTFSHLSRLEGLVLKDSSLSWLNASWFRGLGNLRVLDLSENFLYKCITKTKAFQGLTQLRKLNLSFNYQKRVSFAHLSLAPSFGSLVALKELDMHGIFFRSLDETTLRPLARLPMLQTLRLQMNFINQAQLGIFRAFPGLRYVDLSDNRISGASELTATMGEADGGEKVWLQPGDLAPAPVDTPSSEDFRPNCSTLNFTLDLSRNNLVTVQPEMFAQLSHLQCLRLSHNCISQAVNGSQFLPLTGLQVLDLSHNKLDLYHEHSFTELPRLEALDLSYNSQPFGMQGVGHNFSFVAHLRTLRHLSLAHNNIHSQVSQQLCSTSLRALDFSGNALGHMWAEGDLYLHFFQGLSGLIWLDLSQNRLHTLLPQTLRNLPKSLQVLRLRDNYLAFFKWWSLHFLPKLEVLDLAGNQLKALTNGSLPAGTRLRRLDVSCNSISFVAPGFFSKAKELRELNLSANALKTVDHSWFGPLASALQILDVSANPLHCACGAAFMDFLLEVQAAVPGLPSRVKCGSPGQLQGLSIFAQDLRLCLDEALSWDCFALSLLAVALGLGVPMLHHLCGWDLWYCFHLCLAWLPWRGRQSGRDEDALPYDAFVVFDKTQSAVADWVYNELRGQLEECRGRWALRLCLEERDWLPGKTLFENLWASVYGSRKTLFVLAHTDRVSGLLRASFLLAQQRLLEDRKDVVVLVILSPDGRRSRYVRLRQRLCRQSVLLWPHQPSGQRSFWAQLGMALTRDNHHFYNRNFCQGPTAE
Assay: TLR9 inhibition reporter assay (HEK-Blue cells, secreted embryonic alkaline phosphatase reporter)
Type: cell-based
Details: HEK-Blue cells overexpressing human TLR9, stimulated with ODN2006 5 nM, 22 hour incubation, reporter readout

compound	IC50, nM
CC(C)N1C2CCC1CC(N1CCC(c3ccc4c(nc(-c5ccc(S(C)(=O)=O)cc5)n4C)c3F)CC1)C2 (single isomer, unassigned) [Example 90]	230
Cc1cc(-c2ccc(CN3C[C@H]4CN(C)C[C@H]4C3)c(F)c2)cc2c1nc(-c1ccc(S(C)(=O)=O)cc1)n2C	230
CC(C)N1C2CCC1CC(N1CCC(c3ccc4nc(-c5ccc(S(C)(=O)=O)cc5)n(C)c4c3F)CC1)C2 (single isomer, unassigned) [Example 103]	54
Cc1cc(-c2ccc(CN3CC4(C3)CN(CC(C)C)C4)cc2)cc2c1nc(-c1ccc(S(C)(=O)=O)cc1)n2C	55
Cc1cc(C2CCN(C3CCN(C4CC4)CC3)CC2)cc2c1nc(-c1ccc(S(C)(=O)=O)cc1)n2C	420
COc1cc(-c2nc3c(C)cc(C4CCN(C5CCN(C(C)C)CC5)CC4)cc3n2C)cn2ncnc12	28
Cc1cc(C2CCN(C3CC4CCC(C3)N4C(C)C)CC2)cc2c1nc(-c1ccc(S(C)(=O)=O)cc1)n2C (single isomer, unassigned) [Example 84]	72
COc1ccc(-c2nc3cc(C4CCN(C5CCN(CC(C)C)CC5)CC4)c(C(F)(F)F)cc3[nH]2)cc1OC	260
COc1ccc(-c2nc3c(C)cc(C4CCN(C5CCNCC5)CC4)cc3[nH]2)cc1OC [Example 13, tris(2,2,2-trifluoroacetate)]	620
COc1ccc(-c2nc3cc(C4CCN(C5CCN(CC(C)C)CC5)CC4)ccc3n2C(C)C)cc1OC	360
Cc1cc(-c2cc(F)c(CN3CCC(N4CCCC4)CC3)c(F)c2)cc2c1nc(-c1ccc(S(C)(=O)=O)cc1)n2C	180
CC(C)N1CCCC(N2CCC(c3ccc4nc(-c5ccc(S(C)(=O)=O)cc5)n(C)c4c3F)CC2)CC1 (single isomer, unassigned) [Example 114]	13
COc1ccc(-c2nc3c(C)cc(C4CCN(C5CCN(CC(C)C)CC5)CC4)cc3n2C)cc1F	130
CC(C)N1C2CCC1CC(N1CCC(c3cc(F)c4c(c3)nc(-c3ccc(S(C)(=O)=O)cc3)n4C)CC1)C2 (single isomer, unassigned) [Example 92]	110
Cc1cc(C2CCN(C3CCN(CC(C)C)CC3)CC2)cc2[nH]c(-c3cnc4[nH]ccc4c3)nc12	49
CN(C)C1CCN(Cc2ccc(-c3ccc4nc(-c5ccc(C#N)cc5)n(C)c4c3)cc2)CC1	68
Cc1cc(-c2ccc(CN3CCC(N(C)C)CC3)c(F)c2)cc2c1nc(-c1ccc(S(C)(=O)=O)cc1)n2C	91
CN(C)C1CCN(Cc2ccc(-c3ccc4nc(-c5ccccc5S(C)(=O)=O)n(C)c4c3)cc2)CC1	98
COc1ccc(-c2nc3cc(C4CCN(C5CCN(C6CC6)CC5)CC4)ccc3n2CC(F)F)cc1OC	590
COc1ccc(-c2nc3cc(C4CCN(C5CCN(CC(C)C)CC5)CC4)ccc3n2CC(F)F)cc1OC	210
COc1ccc(-c2nc3c(C)cc(C4CCN(C5CC6(C5)CN(C5CCC5)C6)CC4)cc3n2C)cc1OC	65
COc1ccc(-c2nc3ccc(-c4ccc(CN5CCC(N(C)C)CC5)cc4)cc3n2C)cc1	210
Cc1cc(C2CCN(C3CCN(CC(C)C)CC3)CC2)cc2[nH]c(-c3nccs3)nc12	110
Cc1cc(-c2ccc(CN3C[C@@H]4CN(C(C)C)C[C@@H]4C3)cc2)cc2c1nc(-c1ccc(S(C)(=O)=O)cc1)n2C	86
COc1ccc(-c2nc3c(C)cc(C4CCN(C5CCN(C(C)C)CC5)CC4)cc3[nH]2)cc1F	48
Cc1cc(C2CCN(C3CC4CCC(C3)N4C3CCC3)CC2)cc2c1nc(-c1ccc(S(C)(=O)=O)c(F)c1)n2C (single isomer, unassigned) [Example 123]	890
Cc1cc(-c2ccc(CN3CCCC3)cc2)cc2c1nc(-c1ccc(S(C)(=O)=O)cc1)n2C	1400

---

Molecular target: human TLR9 (Homo sapiens)
Construct: host or cells: HEK-Blue cells (HEK293-derived reporter line)
Test: TLR9 inhibition reporter assay (HEK-Blue cells, secreted embryonic alkaline phosphatase reporter)
Type: cell-based
Conditions: HEK-Blue cells overexpressing human TLR9, stimulated with ODN2006 5 nM, 22 hour incubation, reporter readout
pIC50: −log10 of the molar value.

molecule	pIC50
Cc1cc(-c2ccc(CN3CCC(N4CCCC4)CC3)cc2)cc2c1nc(-c1ccc(S(C)(=O)=O)cc1)n2C	6.92
Cc1cc(-c2ccc(CN3CCN(CC(C)C)CC3)cc2)cc2c1nc(-c1ccc(S(C)(=O)=O)cc1)n2C	5.74
CCN1CCCN(Cc2ccc(-c3cc(C)c4nc(-c5ccc(S(C)(=O)=O)cc5)n(C)c4c3)cc2F)CC1	6.48
COc1ccc(-c2nc3ccc(C4CCN(C5CCN(C(C)C)CC5)CC4)cc3n2CC(F)F)cc1OC	6.60
COc1ccc(-c2nc3c(C)cc(C4CCN(C5CC6CCC(C5)N6CC(C)C)CC4)cc3n2C)cc1OC (single isomer, unassigned) [Example 18]	7.54
CC(C)N1C2CCC1CC(N1CCC(c3cc(F)c4nc(-c5ccc(S(C)(=O)=O)cc5)n(C5CC5)c4c3)CC1)C2 (single isomer, unassigned) [Example 117]	7.15
Cc1cc(C2CCN(C3CCN(CC(C)C)CC3)CC2)cc2[nH]c(-c3ccc4cnccc4c3)nc12	7.43
